- measurement.target: EGFR NPH (Homo sapiens, UniProt P00533, DUP771-773)
- Construct: expressed in transfected cells; host or cells: BaF3 (murine pro-B), retroviral pMXs-IRES-Blasticidin
- Sequence (P00533 with tags, fused parts or gaps DUP771-773): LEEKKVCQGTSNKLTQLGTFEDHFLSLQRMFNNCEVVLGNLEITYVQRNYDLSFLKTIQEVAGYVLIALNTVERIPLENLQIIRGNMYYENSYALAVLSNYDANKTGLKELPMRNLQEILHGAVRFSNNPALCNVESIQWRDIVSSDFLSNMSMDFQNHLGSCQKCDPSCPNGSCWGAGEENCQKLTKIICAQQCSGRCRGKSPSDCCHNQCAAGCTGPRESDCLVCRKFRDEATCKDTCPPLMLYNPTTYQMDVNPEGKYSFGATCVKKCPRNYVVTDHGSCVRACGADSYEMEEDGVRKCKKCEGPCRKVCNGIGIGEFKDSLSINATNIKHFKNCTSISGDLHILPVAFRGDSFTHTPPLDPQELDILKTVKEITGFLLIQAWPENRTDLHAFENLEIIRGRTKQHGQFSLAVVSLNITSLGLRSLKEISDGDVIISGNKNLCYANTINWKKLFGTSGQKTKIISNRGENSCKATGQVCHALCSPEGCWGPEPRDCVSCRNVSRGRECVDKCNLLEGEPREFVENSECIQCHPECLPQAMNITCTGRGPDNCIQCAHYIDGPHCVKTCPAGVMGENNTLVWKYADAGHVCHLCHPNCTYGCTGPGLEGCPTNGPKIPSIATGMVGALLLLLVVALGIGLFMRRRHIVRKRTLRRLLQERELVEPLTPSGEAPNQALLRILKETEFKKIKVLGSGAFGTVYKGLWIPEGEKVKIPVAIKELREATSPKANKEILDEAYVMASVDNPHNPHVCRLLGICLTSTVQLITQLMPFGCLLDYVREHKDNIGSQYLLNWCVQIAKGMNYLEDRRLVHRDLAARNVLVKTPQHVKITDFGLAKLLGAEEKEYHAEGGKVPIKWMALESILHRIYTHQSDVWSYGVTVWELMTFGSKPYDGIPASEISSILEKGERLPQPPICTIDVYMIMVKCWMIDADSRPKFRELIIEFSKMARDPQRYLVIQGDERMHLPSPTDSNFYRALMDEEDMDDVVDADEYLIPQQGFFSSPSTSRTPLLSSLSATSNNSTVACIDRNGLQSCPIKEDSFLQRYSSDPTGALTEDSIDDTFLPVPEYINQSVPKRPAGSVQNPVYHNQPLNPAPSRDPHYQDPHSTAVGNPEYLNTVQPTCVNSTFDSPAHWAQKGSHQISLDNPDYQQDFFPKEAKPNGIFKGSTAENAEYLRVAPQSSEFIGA
- run.description: BaF3 cell proliferation assay, EGFR NPH (Table A)
- Format: cell-based
- condition.description: potency code, 3 days, CellTiterGlo, read-out: EGFR NPH (Activity for Inhibiting EGFR)
The following compounds are listed with their measured IC50 values.
assay.metric: IC50

INSERT INTO measurements (smiles_repr, measurement_target, endpoint_value) VALUES
  ('CC#CC(=O)Nc1cc2c(Nc3ccc(OCc4ccccn4)c(Cl)c3)ncnc2cc1OCCN1CCN(C)CC1', 'EGFR NPH (Homo sapiens, UniProt P00533, DUP771-773)', '50 to 100 nM'),
  ('C=CC(=O)Nc1cc2c(Nc3ccc(Oc4ccccc4)cc3)ncnc2cc1OCCN1CCOCC1', 'EGFR NPH (Homo sapiens, UniProt P00533, DUP771-773)', '300 to 500 nM'),
  ('C=CC(=O)Nc1cc2c(Nc3ccc(OCc4ccccn4)c(Cl)c3)ncnc2cc1OCCCN1CCCC1', 'EGFR NPH (Homo sapiens, UniProt P00533, DUP771-773)', '20 to 30 nM'),
  ('C=CC(=O)Nc1cc2c(Nc3ccc(OCc4ccccn4)c(Cl)c3)ncnc2cc1C#CC(C)(C)N1CCCC1', 'EGFR NPH (Homo sapiens, UniProt P00533, DUP771-773)', '50 to 100 nM'),
  ('C=CC(=O)Nc1cc2c(Nc3ccc(OCc4ccccn4)c(Cl)c3)ncnc2cc1OCCN1CCCC1', 'EGFR NPH (Homo sapiens, UniProt P00533, DUP771-773)', '50 to 100 nM'),
  ('C=CC(=O)Nc1cc2c(Nc3ccc(OCc4ccccn4)c(Cl)c3)ncnc2cc1OCCN1CCC1', 'EGFR NPH (Homo sapiens, UniProt P00533, DUP771-773)', '50 to 100 nM'),
  ('C=CC(=O)Nc1cc2c(Nc3ccc(OCc4ccccn4)c(Cl)c3)ncnc2cc1N1CCN(C)CC1', 'EGFR NPH (Homo sapiens, UniProt P00533, DUP771-773)', '> 1000 nM');

----------
- measurement.target: EGFR SVD (Homo sapiens, UniProt P00533, DUP768-770)
- Construct: expressed in transfected cells; host or cells: BaF3 (murine pro-B), retroviral pMXs-IRES-Blasticidin
- Sequence (P00533 with tags, fused parts or gaps DUP768-770): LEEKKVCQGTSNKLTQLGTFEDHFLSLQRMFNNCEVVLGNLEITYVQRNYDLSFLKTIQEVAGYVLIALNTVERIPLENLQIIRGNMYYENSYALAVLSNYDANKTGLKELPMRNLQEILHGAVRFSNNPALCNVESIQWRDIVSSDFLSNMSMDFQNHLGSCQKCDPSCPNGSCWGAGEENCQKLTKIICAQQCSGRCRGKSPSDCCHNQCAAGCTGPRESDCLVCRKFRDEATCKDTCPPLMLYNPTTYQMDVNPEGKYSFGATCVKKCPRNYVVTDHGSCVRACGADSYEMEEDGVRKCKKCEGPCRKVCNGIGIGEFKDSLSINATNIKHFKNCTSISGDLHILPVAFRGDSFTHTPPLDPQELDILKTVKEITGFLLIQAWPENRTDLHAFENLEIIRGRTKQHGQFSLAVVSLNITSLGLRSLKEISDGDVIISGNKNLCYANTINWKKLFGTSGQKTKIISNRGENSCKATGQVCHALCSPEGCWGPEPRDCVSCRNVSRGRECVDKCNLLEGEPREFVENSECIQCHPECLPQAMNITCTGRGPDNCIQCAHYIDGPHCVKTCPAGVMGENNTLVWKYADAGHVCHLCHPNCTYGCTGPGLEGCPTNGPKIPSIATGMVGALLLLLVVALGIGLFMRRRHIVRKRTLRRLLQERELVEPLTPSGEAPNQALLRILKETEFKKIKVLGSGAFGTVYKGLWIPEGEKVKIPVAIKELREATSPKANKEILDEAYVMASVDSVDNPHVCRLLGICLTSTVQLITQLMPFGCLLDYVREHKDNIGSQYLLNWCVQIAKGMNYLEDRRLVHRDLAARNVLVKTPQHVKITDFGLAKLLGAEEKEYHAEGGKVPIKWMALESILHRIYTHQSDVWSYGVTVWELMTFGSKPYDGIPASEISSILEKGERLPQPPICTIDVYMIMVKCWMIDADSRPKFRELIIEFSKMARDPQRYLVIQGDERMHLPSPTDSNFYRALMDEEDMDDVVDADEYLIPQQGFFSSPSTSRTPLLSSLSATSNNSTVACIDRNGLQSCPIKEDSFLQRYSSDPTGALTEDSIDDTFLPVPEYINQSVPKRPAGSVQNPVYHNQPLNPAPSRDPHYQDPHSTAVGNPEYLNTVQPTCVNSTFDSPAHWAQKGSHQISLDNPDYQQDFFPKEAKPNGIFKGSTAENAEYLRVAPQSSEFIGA
- run.description: BaF3 cell proliferation assay, EGFR SVD (Table A)
- Format: cell-based
- condition.description: potency code, 3 days, CellTiterGlo, read-out: EGFR SVD (Activity for Inhibiting EGFR)
- Method: Retroviral Production: EGFR mutants were subcloned into pMXs-IRES-Blasticidin (RTV-016, Cell Biolabs, San Diego, Calif.). Retroviral expression vector retrovirus was produced by transient transfection of HEK 293T cells with the retroviral EGFR mutant expression vector pMXs-IRES-Blasticidin (RTV-016, Cell Biolabs), pCMV-Gag-Pol vector and pCMV-VSV-G-Envelope vector. […] EC50 values were determined with the same application.
assay.metric: IC50

INSERT INTO results (compound, assay_metric, endpoint_value) VALUES
  ('C=CC(=O)Nc1cc2c(Nc3ccc(OCc4ccccn4)cc3F)ncnc2cc1OCCN1CCOCC1', 'IC50', '0.3 to 0.5 µM'),
  ('C=CC(=O)Nc1cc2c(Nc3ccc(Oc4ccc(C)nc4)c(C)c3)ncnc2cc1OC1CCN(C)C1 (stereo not shown)', 'IC50', '0.5 to 1 µM'),
  ('C=CC(=O)Nc1cc2c(Nc3ccc(OCc4ccccn4)c(Cl)c3)ncnc2cc1OCCCN1CC2CC1CO2 (stereo not shown)', 'IC50', '0.01 to 0.02 µM'),
  ('C=CC(=O)Nc1cc2c(Nc3ccc(OCc4ccccn4)c(Cl)c3)ncnc2cc1OCCN1CC2CCC(C1)O2', 'IC50', '0.05 to 0.1 µM'),
  ('C=CC(=O)Nc1cc2c(Nc3ccc(OCc4ccccn4)c(Cl)c3)ncnc2cc1C#C[C@H]1CCN(C)C1', 'IC50', '0.02 to 0.03 µM'),
  ('C=CC(=O)Nc1cc2c(Nc3cc(Cl)c(OCc4ccccn4)cc3F)ncnc2cc1OC1CCN(C)C1 (stereo not shown)', 'IC50', '0.2 to 0.3 µM'),
  ('CC#CC(=O)Nc1cc2c(Nc3ccc(OCc4ccccn4)c(Cl)c3)ncnc2cc1OCCN1CCN(C)CC1', 'IC50', '0.03 to 0.05 µM');

Ref: patent US11034672B1
